Taken from patent US20250270273A1.

- Target Entity: T1, IFN-γ receptor (IFNGR; IFNGR1 and IFNGR2) on human cells (human, UniProt P15260 18-489; P38484 22-337)
- T1 sequence (looked up) 1: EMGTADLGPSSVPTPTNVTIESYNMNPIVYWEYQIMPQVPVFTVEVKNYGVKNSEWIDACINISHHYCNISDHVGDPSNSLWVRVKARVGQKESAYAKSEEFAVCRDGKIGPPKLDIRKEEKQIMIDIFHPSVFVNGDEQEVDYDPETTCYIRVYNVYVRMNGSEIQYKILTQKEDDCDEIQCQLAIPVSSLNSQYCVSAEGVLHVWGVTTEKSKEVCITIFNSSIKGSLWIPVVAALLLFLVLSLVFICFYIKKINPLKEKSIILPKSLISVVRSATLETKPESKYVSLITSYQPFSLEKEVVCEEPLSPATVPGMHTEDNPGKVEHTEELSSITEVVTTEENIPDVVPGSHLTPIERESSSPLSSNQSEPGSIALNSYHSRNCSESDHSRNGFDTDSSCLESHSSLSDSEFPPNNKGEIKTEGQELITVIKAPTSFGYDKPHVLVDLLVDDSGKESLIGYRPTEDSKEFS
- T1 sequence (looked up) 2: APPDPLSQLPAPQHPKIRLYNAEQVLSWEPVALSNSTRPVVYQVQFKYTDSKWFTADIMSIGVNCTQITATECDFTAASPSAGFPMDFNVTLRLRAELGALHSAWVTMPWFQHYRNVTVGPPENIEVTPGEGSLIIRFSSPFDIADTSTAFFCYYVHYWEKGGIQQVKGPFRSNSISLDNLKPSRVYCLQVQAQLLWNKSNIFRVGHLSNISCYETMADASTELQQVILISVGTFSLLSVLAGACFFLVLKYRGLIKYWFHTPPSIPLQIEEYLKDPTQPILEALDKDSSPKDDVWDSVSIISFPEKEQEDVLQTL
- Protocol Summary: cell-based or functional assay
Recorded EC50 in HT-29 cells, MHCII values for a group of binders are listed next.
Measurement Type: EC50 in HT-29 cells, MHCII (ng/mL)

binder="Compound 2, mono-mPEG-MAL-20K-rhIFN-γ-1b-M135C (ligand, Cys135 thioether-linked to linear mPEG-maleimide of about 20,000 daltons (mPEG-MAL-20K), succinimide ring closed, also called mPEG-MAL-20K-M135C-IFN-γ; M135C 20K linear) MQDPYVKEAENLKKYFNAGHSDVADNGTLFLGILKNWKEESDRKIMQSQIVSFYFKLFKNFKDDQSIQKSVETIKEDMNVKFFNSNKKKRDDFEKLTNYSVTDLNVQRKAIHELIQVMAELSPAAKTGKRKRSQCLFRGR" measurement_type="EC50 in HT-29 cells, MHCII" reported=0.7
binder="rhIFN-γ-1b (wild-type recombinant human interferon-γ-1b) (ligand, also called wt (rhIFN-γ-1b); WT IFN-γ-1b (Actimmune)) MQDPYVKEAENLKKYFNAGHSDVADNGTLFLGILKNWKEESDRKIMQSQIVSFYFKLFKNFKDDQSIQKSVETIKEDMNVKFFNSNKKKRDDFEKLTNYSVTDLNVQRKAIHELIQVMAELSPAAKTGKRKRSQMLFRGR" measurement_type="EC50 in HT-29 cells, MHCII" reported=0.53
binder="Compound 1, mono-mPEG-MAL-10K-rhIFN-γ-1b-M135C (ligand, Cys135 thioether-linked to linear mPEG-maleimide of about 10,000 daltons (mPEG-MAL-10K), succinimide ring closed, also called mPEG-MAL-10K-M135C-IFN-γ; M135C 10K linear) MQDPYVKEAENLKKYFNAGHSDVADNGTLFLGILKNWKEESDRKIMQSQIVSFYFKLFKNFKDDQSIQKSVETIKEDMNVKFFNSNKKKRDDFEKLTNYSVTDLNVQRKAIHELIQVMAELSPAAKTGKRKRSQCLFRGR" measurement_type="EC50 in HT-29 cells, MHCII" reported=0.83
binder="Compound 3, mono-mPEG2-ru-MAL-20K-rhIFN-γ-1b-M135C (ring closed) (ligand, Cys135 thioether-linked to branched mPEG2-maleimide of about 20,000 daltons (mPEG2-MAL-20K), succinimide ring closed, also called mPEG2-MAL-20K-M135C-IFN-γ; M135C 20K branched (RC)) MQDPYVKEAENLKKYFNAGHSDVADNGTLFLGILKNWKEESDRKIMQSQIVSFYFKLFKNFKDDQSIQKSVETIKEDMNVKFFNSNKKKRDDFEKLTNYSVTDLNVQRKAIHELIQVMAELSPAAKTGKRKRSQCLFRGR" measurement_type="EC50 in HT-29 cells, MHCII" reported=1.8
